measurement target: pre-pro-insulin glargine
# Yield annotations
property measured: Yield

protein	reported measurement
trypsin variant SEQ ID NO: 111 (protein) IVGGYTCAANSIPYQVSLNSGSHRCGGSLINSQWVVSAAHCYKPRIQVRLGEHNIHVLEGNEQFINAAKIITHPNFNPNTLDNDIMLIKLSSPATLNSHVATVSLPTSCAAAGTECLISGWGNTSSSGSSYPSLLQCLKAPVLSDSSCKSSYPGQITGNMICVGFLEGGADACQGDSGGPVVCNGQLQGIVSSGYGCAQKNKPGVYTKVCNYVNWIQQTIAAN	> 90%
trypsin variant SEQ ID NO: 91 (protein) IVGGYTCAANSIPYQVSLNSGSHRCGGSLINSQWVVSAAHCYKPRIQVRLGEHNIHVLEGNEQFINAAKIITHPNFNPNTLDNDIMLIKLSSPATLNSAVATVSLPTSCAAAGTECLISGWGNTSSSGSSMPSLLQCLKAPVLSDSSCKSSYPGQITGNMICVGFLEGGKDACQGDSGGPVVCNGQLQGIVSSGYGCAQKNKPGVYTKVCNYVNWIQQTIAAN	> 90%
